target: Human immunodeficiency virus type 1 integrase (Human immunodeficiency virus 1); experiment: Activity against HIV-1 integrase in range 5-20 uM compared to integric acid.
Sequence (Q7ZJM1 whole entry): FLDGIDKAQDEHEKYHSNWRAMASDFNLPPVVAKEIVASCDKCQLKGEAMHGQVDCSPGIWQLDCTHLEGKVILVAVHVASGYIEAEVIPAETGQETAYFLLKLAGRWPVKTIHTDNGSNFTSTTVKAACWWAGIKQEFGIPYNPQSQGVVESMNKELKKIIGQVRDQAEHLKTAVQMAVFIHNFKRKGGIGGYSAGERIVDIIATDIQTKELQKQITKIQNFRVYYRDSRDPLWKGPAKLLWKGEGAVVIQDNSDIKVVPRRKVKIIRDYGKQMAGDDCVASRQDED
Activity calls are given as the source filed them. No cut-off for these calls is given here.
MEASUREMENT LABEL: Activity

>  <COMPOUND>
CCCCC(C)/C=C(\C)C(=O)O[C@@H]1CC[C@H](C(=O)O)[C@@]2(C)C[C@@H]([C@H](C)C=O)C(=O)C=C12 (stereo partly drawn)

>  <TARGET SYSTEM>
Human immunodeficiency virus type 1 integrase (Human immunodeficiency virus 1)

>  <RESULT>
Active

$$$$
>  <COMPOUND>
C=C(C=O)[C@@H]1C[C@@]2(C)C(=CC1=O)[C@H](OC(=O)/C(C)=C/C(C)CCCC)CC[C@@H]2C(=O)NCCNC(=O)[C@H]1CC[C@@H](OC(=O)/C(C)=C/C(C)CCCC)C2=CC(=O)[C@H](C(=C)C=O)C[C@@]21C (stereo partly drawn)

>  <TARGET SYSTEM>
Human immunodeficiency virus type 1 integrase (Human immunodeficiency virus 1)

>  <RESULT>
Active

$$$$
>  <COMPOUND>
C=C(C=O)[C@@H]1C[C@@]2(C)C(=CC1=O)[C@H](OC(=O)/C(C)=C/C(C)CCCC)CC[C@@H]2C(=O)O (stereo partly drawn)

>  <TARGET SYSTEM>
Human immunodeficiency virus type 1 integrase (Human immunodeficiency virus 1)

>  <RESULT>
Active

$$$$

###

Each item that follows carries a reported IC50.
biological target: Human immunodeficiency virus type 1 integrase (Human immunodeficiency virus 1)
Numbers only; they are read as µM.

>  <MOLECULE>
C=C(C=O)[C@@H]1C[C@@]2(C)C(=CC1=O)[C@H](OC(=O)/C(C)=C/C(C)CCCC)CC[C@@H]2C(=O)O/C(=N\C1CCCCC1)NC1CCCCC1 (stereo partly specified)

>  <IC50 [µM]>
88

$$$$
>  <MOLECULE>
C=C(C=O)[C@@H]1C[C@@]2(C)C(=CC1=O)[C@H](OC(=O)/C(C)=C/C(C)CCCC)CC[C@@H]2C(=O)OP(=O)(OCC)OCC (stereo partly specified)

>  <IC50 [µM]>
81

$$$$
>  <MOLECULE>
CCCCC(C)/C=C(\C)C(=O)O[C@@H]1CC[C@H](C(=O)O)[C@@]2(C)C[C@H]3[C@H](C)CO[C@]3(O)C[C@H]12 (stereo partly specified)

>  <IC50 [µM]>
100

$$$$
>  <MOLECULE>
CCCCC(C)/C=C(\C)C(=O)O[C@@H]1CC[C@H](C(=O)O)[C@@]2(C)C[C@H]3[C@@H](C)CO[C@]3(O)C[C@H]12 (stereo partly specified)

>  <IC50 [µM]>
45

$$$$
>  <MOLECULE>
CCCCC(C)/C=C(\C)C(=O)O[C@@H]1CC[C@H](C(=O)O)[C@@]2(C)C[C@@H](C(C)C(O)O)C(=O)C=C12 (stereo partly specified)

>  <IC50 [µM]>
40

$$$$

Value of IC50 reported for the molecule C=C(C=O)[C@@H]1C[C@@]2(C)C(=CC1=O)[C@H](OC(=O)/C(C)=C/C(C)CCCC)CC[C@@H]2C(=O)ON[C@@H](C(=O)OC)c1ccccc1 (stereo partly specified) is 5

###

As a worked illustration, we turn to IC50 data collected for Human immunodeficiency virus type 1 integrase (Human immunodeficiency virus 1).

// known answers, use as guide
>  <COMPOUND>
CC1=C2C[C@@]3(C)C(=CCC[C@@H]3C(=O)O)C=C2OC1=O

>  <IC50>
> 100 µM

$$$$
>  <COMPOUND>
CCCCC(C)/C=C(\C)C(=O)O[C@@H]1CC[C@H](C(=O)O)[C@@]2(C)CC3C(C)C(O)OC3(O)C=C12 (stereo partly drawn)

>  <IC50>
40 µM

$$$$

Next up:
Value of IC50 reported for the compound C=C(C=O)[C@@H]1C[C@@]2(C)C(=CC1=O)[C@H](OC(=O)/C(C)=C/C(C)CCCC)CC[C@@H]2C(=O)NCCNC(=O)[C@H]1CC[C@@H](OC(=O)/C(C)=C/C(C)CCCC)C2=CC(=O)[C@H](C(=C)C=O)C[C@@]21C (stereo partly drawn) is 10 µM
